What shrunken log2 fold change was measured for each of the following?
test system: Escherichia coli TOP10; experiment: shrunken log2 fold change of peptide-encoding DNA abundance (4.5 h post-induction vs induction); higher = less antimicrobial activity (less host growth inhibition); conditions: time post-induction: 4.5 h; library: site-saturation at positions 5, 18, 19, 20;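 also: peptides expressed intracellularly from a pBAD plasmid library in pooled LB shake-flask culture, induced with 0.3% L-arabinose, DNA abundance read by NGS, three biological replicates, DESeq2 with apeglm shrinkage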
When you answer, write just the number.

Exam item: I'd like to know its shrunken log2 fold change. The sequence in question is `RRIRTRPPRLPRPRPRPEKAPRP`
Marked response: 0.00451

Exam item: I'd like to know its shrunken log2 fold change. The sequence in question is `RRIRCRPPRLPRPRPRPGFGPRP`
Marked response: 0.399

Exam item: I'd like to know its shrunken log2 fold change. The sequence in question is `RRIRWRPPRLPRPRPRPGYMPRP`
Marked response: -0.288

Exam item: I'd like to know its shrunken log2 fold change. The sequence in question is `RRIRHRPPRLPRPRPRPNSAPRP`
Marked response: -0.0296

Exam item: I'd like to know its shrunken log2 fold change. The sequence in question is `RRIRVRPPRLPRPRPRPDNSPRP`
Marked response: -0.202

Exam item: I'd like to know its shrunken log2 fold change. The sequence in question is `RRIRNRPPRLPRPRPRPSNRPRP`
Marked response: -0.138

Exam item: I'd like to know its shrunken log2 fold change. The sequence in question is `RRIRTRPPRLPRPRPRPDWWPRP`
Marked response: 0.016

Exam item: I'd like to know its shrunken log2 fold change. The sequence in question is `RRIRERPPRLPRPRPRPCTKPRP`
Marked response: -0.63

Exam item: I'd like to know its shrunken log2 fold change. The sequence in question is `RRIRFRPPRLPRPRPRPYQEPRP`
Marked response: -0.0819

Exam item: I'd like to know its shrunken log2 fold change. The sequence in question is `RRIRHRPPRLPRPRPRPVTVPRP`
Marked response: -0.179

Exam item: I'd like to know its shrunken log2 fold change. The sequence in question is `RRIRARPPRLPRPRPRPVMPPRP`
Marked response: 0.457

Exam item: I'd like to know its shrunken log2 fold change. The sequence in question is `RRIRTRPPRLPRPRPRPDVWPRP`
Marked response: 0.33

Exam item: I'd like to know its shrunken log2 fold change. The sequence in question is `RRIRYRPPRLPRPRPRPYVWPRP`
Marked response: -0.389

Exam item: I'd like to know its shrunken log2 fold change. The sequence in question is `RRIRVRPPRLPRPRPRPLHKPRP`
Marked response: -0.192

Exam item: I'd like to know its shrunken log2 fold change. The sequence in question is `RRIRIRPPRLPRPRPRPRDCPRP`
Marked response: -0.296

Exam item: I'd like to know its shrunken log2 fold change. The sequence in question is `RRIRCRPPRLPRPRPRPYIFPRP`
Marked response: -0.773

Exam item: I'd like to know its shrunken log2 fold change. The sequence in question is `RRIRTRPPRLPRPRPRPGGTPRP`
Marked response: -0.00579

Exam item: I'd like to know its shrunken log2 fold change. The sequence in question is `RRIRGRPPRLPRPRPRPELFPRP`
Marked response: 1.63

Exam item: I'd like to know its shrunken log2 fold change. The sequence in question is `RRIRMRPPRLPRPRPRPNNEPRP`
Marked response: -0.0748

Exam item: I'd like to know its shrunken log2 fold change. The sequence in question is `RRIRLRPPRLPRPRPRPVWQPRP`
Marked response: -0.096

Exam item: I'd like to know its shrunken log2 fold change. The sequence in question is `RRIRVRPPRLPRPRPRPTCYPRP`
Marked response: -0.118

Exam item: I'd like to know its shrunken log2 fold change. The sequence in question is `RRIRARPPRLPRPRPRPLCGPRP`
Marked response: 0.467

Exam item: I'd like to know its shrunken log2 fold change. The sequence in question is `RRIRQRPPRLPRPRPRPSDFPRP`
Marked response: -0.128

Exam item: I'd like to know its shrunken log2 fold change. The sequence in question is `RRIRMRPPRLPRPRPRPKDNPRP`
Marked response: 1.43

Exam item: I'd like to know its shrunken log2 fold change. The sequence in question is `RRIRCRPPRLPRPRPRPRIVPRP`
Marked response: 0.0193

Exam item: I'd like to know its shrunken log2 fold change. The sequence in question is `RRIRPRPPRLPRPRPRPNLRPRP`
Marked response: 0.197

Exam item: I'd like to know its shrunken log2 fold change. The sequence in question is `RRIRKRPPRLPRPRPRPQHKPRP`
Marked response: 0.196

Exam item: I'd like to know its shrunken log2 fold change. The sequence in question is `RRIRNRPPRLPRPRPRPGARPRP`
Marked response: 0.582

Exam item: I'd like to know its shrunken log2 fold change. The sequence in question is `RRIRSRPPRLPRPRPRPTCYPRP`
Marked response: -0.0144

Exam item: I'd like to know its shrunken log2 fold change. The sequence in question is `RRIRCRPPRLPRPRPRPGCIPRP`
Marked response: -0.385

Exam item: I'd like to know its shrunken log2 fold change. The sequence in question is `RRIRSRPPRLPRPRPRPMHYPRP`
Marked response: -0.224

Exam item: I'd like to know its shrunken log2 fold change. The sequence in question is `RRIRVRPPRLPRPRPRPKQLPRP`
Marked response: 0.0267

Exam item: I'd like to know its shrunken log2 fold change. The sequence in question is `RRIRYRPPRLPRPRPRPLCEPRP`
Marked response: -0.238

Exam item: I'd like to know its shrunken log2 fold change. The sequence in question is `RRIRARPPRLPRPRPRPLRKPRP`
Marked response: 0.62

Exam item: I'd like to know its shrunken log2 fold change. The sequence in question is `RRIRVRPPRLPRPRPRPLFIPRP`
Marked response: 0.101

Exam item: I'd like to know its shrunken log2 fold change. The sequence in question is `RRIRCRPPRLPRPRPRPETKPRP`
Marked response: 0.0774

Exam item: I'd like to know its shrunken log2 fold change. The sequence in question is `RRIRPRPPRLPRPRPRPSFPPRP`
Marked response: -0.0649

Exam item: I'd like to know its shrunken log2 fold change. The sequence in question is `RRIRHRPPRLPRPRPRPFHDPRP`
Marked response: -0.152

Exam item: I'd like to know its shrunken log2 fold change. The sequence in question is `RRIRGRPPRLPRPRPRPWCDPRP`
Marked response: 0.0715

Exam item: I'd like to know its shrunken log2 fold change. The sequence in question is `RRIRDRPPRLPRPRPRPHGRPRP`
Marked response: 0.0088

Exam item: I'd like to know its shrunken log2 fold change. The sequence in question is `RRIRERPPRLPRPRPRPFKDPRP`
Marked response: -0.0062

Exam item: I'd like to know its shrunken log2 fold change. The sequence in question is `RRIRVRPPRLPRPRPRPLKGPRP`
Marked response: -0.211

Exam item: I'd like to know its shrunken log2 fold change. The sequence in question is `RRIRPRPPRLPRPRPRPSNFPRP`
Marked response: -0.168

Exam item: I'd like to know its shrunken log2 fold change. The sequence in question is `RRIRCRPPRLPRPRPRPCVTPRP`
Marked response: 0.0974

Exam item: I'd like to know its shrunken log2 fold change. The sequence in question is `RRIRNRPPRLPRPRPRPDWHPRP`
Marked response: -0.394

Exam item: I'd like to know its shrunken log2 fold change. The sequence in question is `RRIRRRPPRLPRPRPRPMWEPRP`
Marked response: 0.00178

Exam item: I'd like to know its shrunken log2 fold change. The sequence in question is `RRIRGRPPRLPRPRPRPRMRPRP`
Marked response: 1.38

Exam item: I'd like to know its shrunken log2 fold change. The sequence in question is `RRIRSRPPRLPRPRPRPTELPRP`
Marked response: -0.0967

Exam item: I'd like to know its shrunken log2 fold change. The sequence in question is `RRIRFRPPRLPRPRPRPSLGPRP`
Marked response: 0.0257

Exam item: I'd like to know its shrunken log2 fold change. The sequence in question is `RRIRRRPPRLPRPRPRPDKWPRP`
Marked response: 0.107

Exam item: I'd like to know its shrunken log2 fold change. The sequence in question is `RRIRCRPPRLPRPRPRPNAHPRP`
Marked response: -0.221

Exam item: I'd like to know its shrunken log2 fold change. The sequence in question is `RRIRWRPPRLPRPRPRPCAQPRP`
Marked response: 0.162

Exam item: I'd like to know its shrunken log2 fold change. The sequence in question is `RRIRCRPPRLPRPRPRPIFYPRP`
Marked response: -0.32

Exam item: I'd like to know its shrunken log2 fold change. The sequence in question is `RRIRPRPPRLPRPRPRPEVIPRP`
Marked response: 0.0141

Exam item: I'd like to know its shrunken log2 fold change. The sequence in question is `RRIRMRPPRLPRPRPRPEEHPRP`
Marked response: 2.85

Exam item: I'd like to know its shrunken log2 fold change. The sequence in question is `RRIRMRPPRLPRPRPRPFIDPRP`
Marked response: -0.438

Exam item: I'd like to know its shrunken log2 fold change. The sequence in question is `RRIRQRPPRLPRPRPRPNDWPRP`
Marked response: 0.142

Exam item: I'd like to know its shrunken log2 fold change. The sequence in question is `RRIRIRPPRLPRPRPRPADNPRP`
Marked response: 0.00497

Exam item: I'd like to know its shrunken log2 fold change. The sequence in question is `RRIRLRPPRLPRPRPRPTYYPRP`
Marked response: -0.399

Exam item: I'd like to know its shrunken log2 fold change. The sequence in question is `RRIRCRPPRLPRPRPRPEPMPRP`
Marked response: 0.176

Exam item: I'd like to know its shrunken log2 fold change. The sequence in question is `RRIRRRPPRLPRPRPRPYNGPRP`
Marked response: -0.0173

Exam item: I'd like to know its shrunken log2 fold change. The sequence in question is `RRIRDRPPRLPRPRPRPALCPRP`
Marked response: 0.225

Exam item: I'd like to know its shrunken log2 fold change. The sequence in question is `RRIRERPPRLPRPRPRPLQPPRP`
Marked response: 0.468
